TEST_DETAILS: Bioavailability and pharmacokinetic profile following intravenous and oral administration
Type: in vivo, Male Sprague Dawley Rats
EXPERIMENTAL_CONDITIONS: male, Sprague Dawley, rat, plasma, iv, 5 mg/kg, IV 5 mg/kg; Rat 1; 0.25 hr
MEASURED_PARAMETER: concentration at 0.25 hr (ng/mL)
Give the number; ng/mL is assumed, so skip it.

// concentration at 0.25 hr lookup, key: CN1CCN(c2cc(N3CCN(C)S3(=O)=O)c3nc(C(=O)NCc4ccc(F)cc4)c(O)c(=O)n3c2)CC1
1990

* * *

TEST_DETAILS: Bioavailability and pharmacokinetic profile following intravenous and oral administration
Assay type: in vivo, Male Sprague Dawley Rats
EXPERIMENTAL_CONDITIONS: male, Sprague Dawley, rat, plasma, iv, 5 mg/kg, IV 5 mg/kg; Rat 2; 1 hr
MEASURED_PARAMETER: concentration at 1 hr (ng/mL)
Entry rule: numbers only, all in ng/mL.

Consider the compound shown here: CN1CCN(c2cc(N3CCN(C)S3(=O)=O)c3nc(C(=O)NCc4ccc(F)cc4)c(O)c(=O)n3c2)CC1 [Example 3.4] What is its recorded concentration at 1 hr?
506

* * *

TEST_DETAILS: Bioavailability and pharmacokinetic profile following intravenous and oral administration
Format: in vivo, Male Sprague Dawley Rats
EXPERIMENTAL_CONDITIONS: male, Sprague Dawley, rat, plasma, po, 10 mg/kg, PO 10 mg/kg; Rat 1; 0.083 hr
MEASURED_PARAMETER: concentration at 0.083 hr
# output: number + unit

So what does the record say about concentration at 0.083 hr for CN1CCN(c2cc(N3CCN(C)S3(=O)=O)c3nc(C(=O)NCc4ccc(F)cc4)c(O)c(=O)n3c2)CC1 ?
42.4 ng/mL

* * *

TEST_DETAILS: Bioavailability and pharmacokinetic profile following intravenous and oral administration
Format: in vivo, Male Sprague Dawley Rats
EXPERIMENTAL_CONDITIONS: male, Sprague Dawley, rat, plasma, iv, 5 mg/kg, IV 5 mg/kg; Rat 1; 2 hr
MEASURED_PARAMETER: concentration at 2 hr

Reported concentration at 2 hr, compound CN1CCN(c2cc(N3CCN(C)S3(=O)=O)c3nc(C(=O)NCc4ccc(F)cc4)c(O)c(=O)n3c2)CC1 : ____
123 ng/mL

* * *

TEST_DETAILS: Bioavailability and pharmacokinetic profile following intravenous and oral administration
Assay type: in vivo, Male Sprague Dawley Rats
EXPERIMENTAL_CONDITIONS: male, Sprague Dawley, rat, plasma, po, 10 mg/kg, PO 10 mg/kg; Rat 1; 0.25 hr
MEASURED_PARAMETER: concentration at 0.25 hr (ng/mL)
Report as a plain number; the unit ng/mL is understood.

Suppose we examine the molecule CN1CCN(c2cc(N3CCN(C)S3(=O)=O)c3nc(C(=O)NCc4ccc(F)cc4)c(O)c(=O)n3c2)CC1 [Example 3.4] ; what concentration at 0.25 hr value has been reported?
66.2

* * *

TEST_DETAILS: Bioavailability and pharmacokinetic profile following intravenous and oral administration
Type: in vivo, Male Sprague Dawley Rats
EXPERIMENTAL_CONDITIONS: male, Sprague Dawley, rat, plasma, po, 10 mg/kg, PO (10 mg/kg); Mean; read-out: MRT(0-∞)
MEASURED_PARAMETER: MRT inf (h)
Field format: number, assumed h, no unit text.

Sample CN1CCN(c2cc(N3CCN(C)S3(=O)=O)c3nc(C(=O)NCc4ccc(F)cc4)c(O)c(=O)n3c2)CC1 [Example 3.4] — what was its MRT inf?
1.63
